What follows is a collection of IC50 values obtained with DGKα (Homo sapiens (Human)).
Sequence (P23743 whole entry): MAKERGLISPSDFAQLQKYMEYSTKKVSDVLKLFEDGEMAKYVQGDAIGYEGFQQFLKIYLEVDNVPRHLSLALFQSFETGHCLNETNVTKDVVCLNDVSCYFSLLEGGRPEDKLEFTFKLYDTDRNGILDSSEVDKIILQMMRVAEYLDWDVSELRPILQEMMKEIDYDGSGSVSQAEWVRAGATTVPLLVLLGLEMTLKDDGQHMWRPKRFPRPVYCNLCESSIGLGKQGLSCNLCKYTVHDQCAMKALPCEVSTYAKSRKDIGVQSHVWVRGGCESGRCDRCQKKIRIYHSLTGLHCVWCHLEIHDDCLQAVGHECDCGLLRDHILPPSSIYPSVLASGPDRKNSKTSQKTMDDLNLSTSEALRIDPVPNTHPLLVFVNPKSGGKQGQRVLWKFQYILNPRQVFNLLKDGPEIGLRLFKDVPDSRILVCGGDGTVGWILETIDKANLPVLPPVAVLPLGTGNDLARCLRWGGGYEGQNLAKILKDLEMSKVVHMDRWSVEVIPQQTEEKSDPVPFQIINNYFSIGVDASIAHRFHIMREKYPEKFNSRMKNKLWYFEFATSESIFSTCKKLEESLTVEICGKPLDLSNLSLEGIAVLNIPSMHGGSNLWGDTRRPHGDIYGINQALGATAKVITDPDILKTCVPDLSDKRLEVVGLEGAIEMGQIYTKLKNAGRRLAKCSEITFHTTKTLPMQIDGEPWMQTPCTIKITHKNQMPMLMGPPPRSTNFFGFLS

- CCC(c1ccc2nccnc2c1)N1C[C@H](C)N(c2cc(=O)n(C)c3cn(CC#N)nc23)C[C@H]1C (stereo partly drawn): > 10 µM
- CC[C@H]1CN(C(C)c2ccc(F)cc2C(F)(F)F)[C@H](CC)CN1c1cc(=O)n(C)c2cn(CC#N)nc12 (single isomer, unassigned) [Compound A196a]: > 10 µM

Field: next molecule
Any idea what IC50 was measured for Cc1nc2cccc(C(C)N3C[C@H](C)N(c4cc(=O)n(C)c5cn(CC#N)nc45)C[C@H]3C)c2o1 (stereo partly drawn) ?
> 10 µM
